Reference source for all entries: paper PMC9482650

target: ARHGEF12, Q9NZN5-2; test: holdup assay; set-up: key: below the threshold = too weak to quantify, mostly under pKd 3.1 to 4; conditions: plain residues with an end cap or a label only (N-terminal biotin on a linker: ado-ado)
Sequence (Q9NZN5 other isoform, or with tags, fused parts or gaps): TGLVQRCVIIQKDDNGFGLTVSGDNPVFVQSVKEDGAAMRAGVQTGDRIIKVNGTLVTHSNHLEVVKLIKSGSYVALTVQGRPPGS
Catalogue of pKd values

binder	pKd
YAEKRMLTEV [KCNA6, P17658]	4.91
ATKDKKITTV [EXOC4, Q96A65]	4.87
TKEIPNCTSV [SORCS3, Q9UPU3]	4.54
